system: Klebsiella pneumoniae; settings: Concentration 32 ug.mL-1;; ASSAY_TEST Inhibition of Bacterial Growth; detection method Absorption (OD600); MEDIA CAMHB; plate type 384well; NBS; CORNING #3640; time 18 hr
Description: Antibacterial activity against Klebsiella pneumoniae MDR ATCC 70063 (CO-ADD:GN_003); MIC in CAMBH media using NBS plates, by OD(600)
Entries with a potency or affinity are not part of this list.
hey, just use 1.0 if measured Inhibition is less than 10%, otherwise 0.0

compound=CC(C)c1ccc(N(Cc2ccccc2)S(=O)(=O)c2cccn3cnnc23)cc1 qualitative_label=1.0
compound=Cc1ccc(-c2cc3c4nn(CC(=O)Nc5ccc(F)cc5)c(=O)n4ccn3n2)cc1C qualitative_label=1.0
compound=O=C(CSc1nnc2c(=O)n(-c3ccccc3)ccn12)Nc1cc(F)ccc1F qualitative_label=1.0
compound=Cc1ccc(-c2ccc3nn(CC(=O)Nc4ccc(Br)cc4F)c(=O)n3n2)cc1 qualitative_label=1.0
compound=COc1cccc(CN(c2ccc(F)c(F)c2)S(=O)(=O)c2cccn3c(C)nnc23)c1 qualitative_label=0.0
compound=Cc1ccccc1NC(=O)Cn1nc2c3cc(-c4ccc(Cl)cc4)nn3ccn2c1=O qualitative_label=0.0
compound=O=c1c2nnc(-c3cccc([N+](=O)[O-])c3)n2ccn1-c1ccc(F)cc1 qualitative_label=0.0
compound=Cc1ccc(CN(c2ccc(C(C)C)cc2)S(=O)(=O)c2cccn3c(C)nnc23)cc1 qualitative_label=1.0
compound="CCC(C)NC(=O)Cn1nc2ccc(SCc3ccc(Cl)cc3)nn2c1=O (stereo not given)" qualitative_label=0.0
